# IC50 per entry
# Test system: PANC-1 cells
# protocol.text: 72 h MTT cytotoxicity, PANC-1
# Assay type: cell-based, human

Fetch value of IC50 on PANC-1 cells for COc1cc2cc(C(=O)CCC(=O)[O][Pt]([NH2])([NH2])([Cl])([Cl])[O]C(=O)CCC(=O)c3cc4cc(OC)c(OC)cc4s3)sc2cc1OC [conjugate II] .
6.9 µM

Param request: IC50 | system PANC-1 cells | item COc1cc2cc(C(=O)CCC(=O)[O][Pt]([NH2])([NH2])([OH])([Cl])[Cl])sc2cc1OC [conjugate I]
0.06 µM

Provide PANC-1 cells IC50 reading for N.N.[Cl-].[Cl-].[OH-].[OH-].[Pt+4] [Oxoplatin] .
> 50 µM

Quote IC50 with test system PANC-1 cells for [NH2][Pt]([NH2])([Cl])[Cl] [CDDP, cisplatin]
11.1 µM

====

# System: Pan02 cells
# protocol.text: 72 h MTT cytotoxicity, Pan02
# Assay type: cell-based, mouse
# stated.conditions: Mus musculus, Pan02
value.kind: IC50

Note down IC50 recorded for COc1cc2cc(C(=O)CCC(=O)O)sc2cc1OC
> 50 µM

====

Measured IC50 by item
# System: MCF-7 cells
# protocol.text: 72 h MTT cytotoxicity, MCF-7
# Assay type: cell-based, human
# Procedure: Cytotoxicity. Tumor cells were cultured overnight after inoculation in RPMI-1640 medium or DMEM supplemented with 10% FBS. All cultures were maintained in an incubator in a highly humidified atmosphere of 95% air with 5% CO2 at 37 °C. Growth inhibition was measured with an MTT assay. […] The amount of formazan was determined using a microplate reader at 570 nm after the plates were shaken for 30 min. […] The mean IC50 values were calculated using data from three replicates.
Report the figure in µM without appending any unit label.

Example cases with answers are listed next.
{"compound": "[NH2][Pt]([NH2])([Cl])[Cl] [CDDP, cisplatin]", "IC50 [µM]": 5.4}
{"compound": "COc1cc2cc(C(=O)CCC(=O)[O][Pt]([NH2])([NH2])([OH])([Cl])[Cl])sc2cc1OC [conjugate I]", "IC50 [µM]": 0.3}

Lab note: next compound to report on.
Quote IC50 reported for N.N.[Cl-].[Cl-].[OH-].[OH-].[Pt+4] [Oxoplatin] please.
8.2

====

# Test system: MCF-7 cells
# protocol.text: 72 h MTT cytotoxicity, MCF-7
# Format: cell-based, human
# stated.conditions: Homo sapiens, MCF7
# Method: Cytotoxicity. Tumor cells were cultured overnight after inoculation in RPMI-1640 medium or DMEM supplemented with 10% FBS. All cultures were maintained in an incubator in a highly humidified atmosphere of 95% air with 5% CO2 at 37 °C. Growth inhibition was measured with an MTT assay. […] The amount of formazan was determined using a microplate reader at 570 nm after the plates were shaken for 30 min. […] The mean IC50 values were calculated using data from three replicates.
pIC50: −log10 of the molar value.
value.kind: pIC50

State the measured pIC50 (MCF-7 cells) of COc1cc2cc(C(=O)CCC(=O)O)sc2cc1OC [MSA-2]
< 4.30
